Conditions: human gut metagenome, 24 h, 2 µM; further: call rule not given here

# molecule, Bacterial Biotransformation
data = [
    ("CN1CCN(C(=O)O[C@H]2c3nccnc3C(=O)N2c2ccc(Cl)cn2)CC1", "Compound NOT metabolized"),
    ("COc1ccc2c(c1OC)C(=O)O[C@@H]2[C@H]1c2c(cc3c(c2OC)OCO3)CCN1C", "Compound NOT metabolized"),
    ("COc1ccccc1OCC(O)CN1CCN(CC(=O)Nc2c(C)cccc2C)CC1 (stereo not given)", "Compound NOT metabolized"),
    ("O=C(O)COCCN1CCN(C(c2ccccc2)c2ccc(Cl)cc2)CC1 (stereo not given)", "Compound metabolized"),
    ("COc1ccc2[nH]c([S+]([O-])Cc3ncc(C)c(OC)c3C)nc2c1 (stereo not given)", "Compound metabolized"),
]

###

Conditions: human gut metagenome, 24 h, 2 µM

# molecule, Bacterial Biotransformation
rows = [
    ("CNC(=C[N+](=O)[O-])NCCSCc1csc(CN(C)C)n1", "Compound metabolized"),
    ("CC(C)c1c(C(=O)Nc2ccccc2)c(-c2ccccc2)c(-c2ccc(F)cc2)n1CC[C@@H](O)C[C@@H](O)CC(=O)O", "Compound metabolized"),
    ("NC12CC3CC(CC(C3)C1)C2", "Compound NOT metabolized"),
    ("CNS(=O)(=O)Cc1ccc2[nH]cc(CCN(C)C)c2c1.O=C(O)CCC(=O)O [SUMATRIPTAN SUCCINATE]", "Compound metabolized"),
    ("CN(C)CC(c1ccc(O)cc1)C1(O)CCCCC1.O=C(O)CCC(=O)O (stereo not given) [DESVENLAFAXINE SUCCINATE]", "Compound NOT metabolized"),
    ("Cc1ccccc1N1C(=O)c2cc(S(N)(=O)=O)c(Cl)cc2NC1C (stereo not given)", "Compound metabolized"),
    ("COc1ccc2[nH]c([S+]([O-])Cc3ncc(C)c(OC)c3C)nc2c1 (stereo not given)", "Compound metabolized"),
    ("COc1ccc2c(c1OC)C(=O)O[C@@H]2[C@H]1c2c(cc3c(c2OC)OCO3)CCN1C", "Compound NOT metabolized"),
    ("CCC1(c2ccc(N)cc2)CCC(=O)NC1=O (stereo not given) [AMINOGLUTETHIMIDE]", "Compound NOT metabolized"),
    ("CCOc1ccc(NC(C)=O)cc1", "Compound NOT metabolized"),
]

###

Assay: The drug is tested on Z-025 corresponding to rabbit gut metagenome with ENA study accession number: PRJEB37062 and ENA sample accession number: ERS12561824 for biotransformation under anaerobic condition. The drug concentrations were measured over 9 timepoints collected between 0 and 24 hours of incubation by liquid-chromatography-coupled mass spectrometry (LC–MS)
Settings: 2 µM
Where a SMILES comes first, the peptide text is derived from it. [ ]: non-standard residue; d: D form. pGlu = O=C1CC[C@@H](C(=O)O)N1; Thz = O=C(O)[C@@H]1CSCN1
measured_endpoint: Bacterial Biotransformation

# molecule, measured_result
records = [
    ("Cc1ccc(S(=O)(=O)NC(=O)NN2CCCCCC2)cc1 [TOLAZAMIDE]", "Compound metabolized"),
    ("CCN(CC)C(C)CN1c2ccccc2Sc2ccccc21 (centres undefined)", "Compound NOT metabolized"),
    ("OC(CCN1CCCCC1)(c1ccccc1)C1CCCCC1 (centres undefined)", "Compound NOT metabolized"),
    ("NC(=O)N1c2ccccc2CC(=O)c2ccccc21 [OXCARBAZEPINE]", "Compound NOT metabolized"),
    ("CN1C(C(=O)Nc2ccccn2)=C(O)c2sccc2S1(=O)=O", "Compound metabolized"),
    ("O=C1CC[C@@H](C(=O)N2CSC[C@H]2C(=O)O)N1 [PIDOTIMOD] ([pGlu]-[Thz]-OH)", "Compound NOT metabolized"),
    ("COC1=CC(=O)C[C@@H](C)[C@]12Oc1c(Cl)c(OC)cc(OC)c1C2=O", "Compound metabolized"),
    ("CN1CCN(C2=Nc3cc(Cl)ccc3Nc3ccccc32)CC1", "Compound NOT metabolized"),
    ("CO[C@]12C[C@@H](COC(=O)c3cncc(Br)c3)CN(C)[C@@H]1Cc1cn(C)c3cccc2c13", "Compound metabolized"),
]

###

Assay: The drug is tested on Z-003 corresponding to pig gut metagenome with ENA study accession number: PRJEB37062 and ENA sample accession number: ERS12561803 for biotransformation under anaerobic condition. The drug concentrations were measured over 9 timepoints collected between 0 and 24 hours of incubation by liquid-chromatography-coupled mass spectrometry (LC–MS)
Settings: 2 µM
measured_endpoint: Bacterial Biotransformation

# compound, measured_endpoint, measured_result
records = [
    ("CCCc1nc(C(C)(C)O)c(C(=O)OCc2oc(=O)oc2C)n1Cc1ccc(-c2ccccc2-c2nnn[nH]2)cc1", "Bacterial Biotransformation", "Compound metabolized"),
    ("CC(C)OC(=O)C(C)(C)Oc1ccc(C(=O)c2ccc(Cl)cc2)cc1 [FENOFIBRATE]", "Bacterial Biotransformation", "Compound metabolized"),
    ("CCOC(=O)[C@H](CCc1ccccc1)N[C@@H](C)C(=O)N1[C@H](C(=O)O)C[C@H]2CCCC[C@@H]21", "Bacterial Biotransformation", "Compound metabolized"),
    ("Cc1cn([C@H]2C[C@H](N=[N+]=[N-])[C@@H](CO)O2)c(=O)[nH]c1=O", "Bacterial Biotransformation", "Compound NOT metabolized"),
    ("CN1CCC(=C2c3ccccc3CCc3cccnc32)CC1.O=C(O)/C=C\\C(=O)O.O=C(O)/C=C\\C(=O)O [AZATADINE MALEATE]", "Bacterial Biotransformation", "Compound NOT metabolized"),
    ("CCN(CC)CCNC(=O)c1cc(Cl)c(N)cc1OC [METOCLOPRAMIDE]", "Bacterial Biotransformation", "Compound NOT metabolized"),
    ("CN1CCN(C2=Nc3cc(Cl)ccc3Nc3ccccc32)CC1", "Bacterial Biotransformation", "Compound NOT metabolized"),
    ("CC(CN1c2ccccc2Sc2ccccc21)N(C)C (stereo not drawn)", "Bacterial Biotransformation", "Compound NOT metabolized"),
    ("CCN(CC)C(=O)/C(C#N)=C/c1cc(O)c(O)c([N+](=O)[O-])c1", "Bacterial Biotransformation", "Compound metabolized"),
    ("C=CCN1CC[C@]23c4c5ccc(O)c4O[C@H]2C(=O)CC[C@@]3(O)[C@H]1C5", "Bacterial Biotransformation", "Compound metabolized"),
    ("CCC(=O)NCC[C@@H]1CCc2ccc3c(c21)CCO3", "Bacterial Biotransformation", "Compound metabolized"),
    ("COc1ccccc1OCC(O)COC(N)=O (stereo not drawn)", "Bacterial Biotransformation", "Compound NOT metabolized"),
    ("CCC1(c2ccc(N)cc2)CCC(=O)NC1=O (stereo not drawn) [AMINOGLUTETHIMIDE]", "Bacterial Biotransformation", "Compound NOT metabolized"),
    ("CCN1CCCC1CNC(=O)c1cc(S(N)(=O)=O)ccc1OC (stereo not drawn) [SULPIRIDE]", "Bacterial Biotransformation", "Compound metabolized"),
    ("COC1=CC(=O)C[C@@H](C)[C@]12Oc1c(Cl)c(OC)cc(OC)c1C2=O", "Bacterial Biotransformation", "Compound metabolized"),
    ("CN1CCc2cccc3c2[C@H]1Cc1ccc(O)c(O)c1-3", "Bacterial Biotransformation", "Compound metabolized"),
    ("CCN(CC)CCOC(=O)C(Cc1cccc2ccccc12)CC1CCCO1.O=C(O)C(=O)O (stereo not drawn) [NAFRONYL OXALATE]", "Bacterial Biotransformation", "Compound metabolized"),
    ("CC(C)NCC(O)COc1ccc(COCCOC(C)C)cc1.CC(C)NCC(O)COc1ccc(COCCOC(C)C)cc1.O=C(O)/C=C/C(=O)O (stereo not drawn) [BISOPROLOL FUMARATE]", "Bacterial Biotransformation", "Compound metabolized"),
    ("CC(C)(Oc1ccc(CCNC(=O)c2ccc(Cl)cc2)cc1)C(=O)O [BEZAFIBRATE]", "Bacterial Biotransformation", "Compound metabolized"),
    ("Nc1ccc(/N=N/c2ccccc2)c(N)n1", "Bacterial Biotransformation", "Compound metabolized"),
    ("CN(C)CCC=C1c2ccccc2C=Cc2ccccc21", "Bacterial Biotransformation", "Compound metabolized"),
    ("COC(=O)C1=C(C)NC(C)=C(C(=O)OC(C)C)C1c1cccc2nonc12 (stereo not drawn)", "Bacterial Biotransformation", "Compound metabolized"),
    ("CC(=O)O[C@]1(C(C)=O)CC[C@H]2[C@@H]3C=C(Cl)C4=CC(=O)[C@@H]5C[C@@H]5[C@]4(C)[C@H]3CC[C@@]21C [CYPROTERONE ACETATE]", "Bacterial Biotransformation", "Compound metabolized"),
    ("CCN(CC)C(C)CN1c2ccccc2Sc2ccccc21 (stereo not drawn)", "Bacterial Biotransformation", "Compound metabolized"),
    ("CNS(=O)(=O)Cc1ccc2[nH]cc(CCN(C)C)c2c1.O=C(O)CCC(=O)O [SUMATRIPTAN SUCCINATE]", "Bacterial Biotransformation", "Compound metabolized"),
    ("CNC(=C[N+](=O)[O-])NCCSCc1ccc(CN(C)C)o1", "Bacterial Biotransformation", "Compound metabolized"),
    ("CCCC1O[C@@H]2C[C@H]3[C@@H]4CCC5=CC(=O)C=C[C@]5(C)[C@H]4[C@@H](O)C[C@]3(C)[C@]2(C(=O)CO)O1 (stereo partly drawn) [BUDESONIDE]", "Bacterial Biotransformation", "Compound metabolized"),
    ("COCCc1ccc(OCC(O)CNC(C)C)cc1.COCCc1ccc(OCC(O)CNC(C)C)cc1.O=C(O)C(O)C(O)C(=O)O (stereo not drawn) [METOPROLOL TARTRATE]", "Bacterial Biotransformation", "Compound metabolized"),
    ("COc1c(C)c2c(c(O)c1C/C=C(\\C)CCC(=O)OCCN1CCOCC1)C(=O)OC2 [MYCOPHENOLATE MOFETIL]", "Bacterial Biotransformation", "Compound metabolized"),
    ("CC[C@@H](CO)NC(=O)[C@@H]1C=C2c3cccc4c3c(cn4C)C[C@H]2N(C)C1.O=C(O)/C=C\\C(=O)O [METHYSERGIDE MALEATE]", "Bacterial Biotransformation", "Compound NOT metabolized"),
    ("COc1ccc2c3c1O[C@H]1C[C@@H](O)C=C[C@@]31CCN(C)C2", "Bacterial Biotransformation", "Compound NOT metabolized"),
    ("CN1CCN(C(=O)O[C@H]2c3nccnc3C(=O)N2c2ccc(Cl)cn2)CC1", "Bacterial Biotransformation", "Compound NOT metabolized"),
    ("Cc1cc2c(cc1S(N)(=O)=O)S(=O)(=O)CCC2", "Bacterial Biotransformation", "Compound NOT metabolized"),
]
